Target: LgTrip 3546 (with His tag; SEQ ID NO: 51)
Sequence (chain, as listed by the source): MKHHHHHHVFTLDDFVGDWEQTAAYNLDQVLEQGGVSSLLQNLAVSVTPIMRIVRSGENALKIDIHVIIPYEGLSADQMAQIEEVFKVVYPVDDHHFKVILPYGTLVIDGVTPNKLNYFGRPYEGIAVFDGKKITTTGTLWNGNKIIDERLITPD
Assay: luminescence complementation; SmTrip9 Kd
Conditions: modification not given
pKd: −log10 of the molar value.
parameterMeasured: pKd

[
  {
    "binder": "DKLLFTVTIQKYK [757]",
    "observedValue": 6.44
  }
]

These measurements were taken from patent US20200270586A1.
